Data provenance is patent US20250163057A1.

# assaySystem: DCN1 (DCUND1) protein PONY domain (Homo sapiens (Human), UniProt Q96GG9)
# Sequence (Q96GG9 60-248): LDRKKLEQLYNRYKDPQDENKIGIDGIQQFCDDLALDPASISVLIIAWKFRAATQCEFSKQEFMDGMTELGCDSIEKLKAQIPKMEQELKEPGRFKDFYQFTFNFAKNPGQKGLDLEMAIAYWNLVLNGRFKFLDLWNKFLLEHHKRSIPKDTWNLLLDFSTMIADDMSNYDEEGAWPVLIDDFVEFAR
# assayInfo: TR-FRET assay, DCN1 binding with FAM-labeled probe
# experimentalParameters: TR FRET IC50 1 hr (nM), 1 hr after treatment with compound
// reported IC50 for each item listed
resultType: IC50

compound: CCN1C(=O)[C@@H](NC(=O)c2ccc3cn[nH]c3c2)[C@@H](C2CC2)c2c(C(=O)N3[C@H](C#N)C[C@H]4C[C@H]43)nn(C3CCOCC3)c21 [Compound I-563]
resultType: IC50
result: 1000 to 3000 nM
--
compound: CCN1C(=O)[C@@H](NC(=O)c2cccc(C(F)(F)F)c2)[C@@H](C2CC2)c2c(C(=O)N3CCNC[C@@H]3C#N)nn(-c3ccccc3)c21 (single isomer, unassigned) [Compound I-518]
resultType: IC50
result: 200 to 1000 nM
--
compound: CCN1C(=O)[C@@H](NC(=O)c2cccc(C(F)(F)F)c2)[C@@H](C2CCC2)c2c(C(=O)N(CC#N)C3CC3)nn(C3CCOCC3)c21 [Compound I-515]
resultType: IC50
result: 200 to 1000 nM

---

# assaySystem: DCN1 (DCUND1) protein PONY domain (Homo sapiens (Human))
# assayInfo: TR-FRET assay, DCN1 binding with FAM-labeled probe
# experimentalParameters: 24 hr after treatment with compound; read-out: TR FRET IC50 24 hr
pIC50: −log10 of the molar value.
// reported pIC50 for each item listed

compound: CCN1C(=O)[C@@H](NC(=O)CC2CCCc3ccccc32)[C@@H](C2CC2)c2c(C(=O)N3[C@H](C#N)C[C@H]4C[C@H]43)nn(C3CCOCC3)c21 (stereo partly shown)
pIC50: 5.52 to 6.00
--
compound: CCN1C(=O)[C@@H](NC(=O)c2cccc(C(F)(F)F)c2)[C@@H](c2ccc(F)cc2)c2c(C(=O)N(C)[C@H](C#N)CCN3CCC34COC4)nn(-c3ccccc3)c21
pIC50: ≥ 6.70
--
compound: COCCN1C(=O)[C@@H](NC(=O)c2cccc(C(F)(F)F)c2)[C@@H](C2CC2)c2c(C(=O)N3[C@H](C#N)C[C@H]4C[C@H]43)nn(C3CCOCC3)c21
pIC50: 6.00 to 6.70
--
compound: CCN1C(=O)[C@@H](NC(=O)c2cccc(C(F)(F)F)c2)[C@@H](c2ccc(F)cc2)c2c(C(=O)N3[C@H](C)CC[C@H]3C#N)nn(C3CCOCC3)c21
pIC50: 6.00 to 6.70
--
compound: CCN1C(=O)[C@@H](NC(=O)c2cccc(C(F)(F)F)c2)[C@@H](c2ccc(F)cc2)c2c(NC(=O)C#CCN3CCOCC3)nn(-c3ccccc3)c21 (racemic)
pIC50: ≥ 6.70
--
compound: CCN1C(=O)[C@@H](NC(=O)c2cccc(C(F)(F)F)c2)[C@@H](c2ccc(F)cc2)c2c(/C=C3\CCC(=O)N3)nn(-c3ccccc3)c21 (racemic)
pIC50: 5.52 to 6.00
--
compound: CCN1C(=O)[C@@H](NC(=O)c2ccc3nonc3c2)[C@@H](C2CC2)c2c(C(=O)N3[C@H](C#N)C[C@H]4C[C@H]43)nn(C3CCOCC3)c21
pIC50: 5.52 to 6.00
--
compound: CCN1C(=O)[C@@H](NC(=O)c2cccc(C(F)(F)F)c2)[C@@H](c2ccc(F)cc2)c2c(C(=O)N(CC#N)C3CC3)nn(C3CC3)c21
pIC50: ≥ 6.70
--
compound: CCN1C(=O)[C@@H](NC(=O)N2CCC[C@@H](C(F)(F)F)C2)C(c2ccc(F)cc2)c2c(C(=O)N3CCC[C@H]3C#N)nn(-c3ccccc3)c21 (single isomer, unassigned)
pIC50: 5.52 to 6.00
--
compound: CCN1C(=O)[C@@H](NC(=O)c2ccc3ncoc3c2)[C@@H](C2CC2)c2c(C(=O)N3[C@H](C#N)C[C@H]4C[C@H]43)nn(C3CCOCC3)c21
pIC50: 5.52 to 6.00

---

# assaySystem: DCN1 (DCUND1) protein PONY domain (Homo sapiens (Human), UniProt Q96GG9)
# assayInfo: TR-FRET assay, DCN1 binding with FAM-labeled probe
# experimentalParameters: read-out: TR FRET IC50 1 hr; 1 hr after treatment with compound
// reported IC50 for each item listed

compound: C=C(CN1CC2(CCOC2)C1)C(=O)NCc1nn(-c2ccccc2)c2c1[C@H](c1ccc(F)cc1)[C@H](NC(=O)c1cccc(C(F)(F)F)c1)C(=O)N2CC [Compound I-677]
IC50: ≤ 200 nM
//
compound: C=C(CN1CCC1)C(=O)NCc1nn(-c2ccccc2)c2c1[C@H](c1ccc(F)cc1)[C@H](NC(=O)c1cccc(C(F)(F)F)c1)C(=O)N2CC [Compound I-2]
IC50: ≤ 200 nM
//
compound: CCN1C(=O)[C@@H](NC(=O)c2cccc(C(F)(F)F)c2)[C@@H](c2ccc(F)cc2)c2c([C@@H](CCC(O)CO)NC#N)nn(-c3ccccc3)c21 (stereo partly drawn) [Compound I-497]
IC50: ≤ 200 nM
//
compound: CCN1C(=O)[C@@H](NC(=O)c2cccc(C(F)(F)F)c2)[C@@H](c2ccc(F)cc2)c2c(C(=O)N3CS(=O)(=O)C[C@H]3C#N)nn(C3CCOCC3)c21 (mixture of isomers) [Compound I-661]
IC50: ≤ 200 nM
//
compound: CCN1C(=O)[C@@H](NC(=O)c2cccc3c2OCO3)[C@@H](C2CC2)c2c(C(=O)N3[C@H](C#N)C[C@H]4C[C@H]43)nn(C3CCOCC3)c21 [Compound I-397]
IC50: ≤ 200 nM
//
compound: CCN1C(=O)[C@@H](NC(=O)c2cccc(C(F)(F)F)c2)[C@@H](c2ccc(F)cc2)c2c(C(=O)N(C)[C@@H](C#N)CCN3CCOCC3)nn(-c3ccccc3)c21 [Compound I-309]
IC50: ≤ 200 nM
//
compound: CCN1C(=O)[C@@H](NC(=O)c2cccc(C(F)(F)F)c2)[C@@H](c2ccc(F)cc2)c2c(CN(C)C(=O)/C=C/C(=O)OC)nn(-c3ccccc3)c21 (racemic) [Compound I-107]
IC50: ≤ 200 nM
//
compound: CCN1C(=O)[C@@H](NC(=O)c2cccc(C(F)(F)F)c2)[C@@H](c2ccc(F)cc2)c2c(C(=O)N(C)[C@H](C)C#N)nn(C3CCOCC3)c21 [Compound I-367]
IC50: ≤ 200 nM
//
compound: CCN1C(=O)[C@@H](NC(=O)c2cccc(C(F)(F)F)c2)[C@@H](c2ccc(F)cc2)c2c(C(=O)N3CCNC[C@@H]3C#N)nn(C3CCOCC3)c21 [Compound I-364]
IC50: ≤ 200 nM
//
compound: C=CC(=O)Nc1nn(-c2ccccc2)c2c1[C@H](c1ccc(F)cc1)[C@H](NC(=O)c1cccc(C(F)(F)F)c1)C(=O)N2CC (racemic) [Compound I-122]
IC50: ≤ 200 nM
//
compound: CCN1C(=O)[C@@H](NC(=O)c2cccc(C(F)(F)F)c2)[C@@H](c2ccc(F)cc2)c2c(CN(C)C(=O)[C@H](C)Cl)nn(-c3ccccc3)c21 (stereo in doubt) [Compound I-30]
IC50: > 3000 nM
//
compound: CCN1C(=O)[C@@H](NC(=O)c2cccc(C(F)(F)F)c2)[C@@H](c2ccc(F)cc2)c2c(C(=O)N(CC#N)CCN3CC4CC(C3)O4)nn(-c3ccccc3)c21 (mixture of isomers) [Compound I-322]
IC50: ≤ 200 nM
//
compound: CCN1C(=O)[C@@H](NC(=O)c2cccc(C(F)(F)F)c2)[C@@H](c2ccc(F)cc2)c2c(C(=O)N(CC#N)CC#N)nn(-c3ccccc3)c21 [Compound I-302]
IC50: ≤ 200 nM
//
compound: CCN1C(=O)[C@@H](NC(=O)c2cccc(C(F)(F)F)c2)[C@@H](c2ccc(F)cc2)c2c(C(=O)N(C)[C@@H](C)C#N)nn(C3CCOCC3)c21 [Compound I-368]
IC50: ≤ 200 nM
//
compound: CCN1C(=O)[C@@H](NC(=O)c2cccc(C(F)(F)F)n2)[C@@H](C2CC2)c2c(C(=O)N3[C@H](C#N)C[C@H]4C[C@H]43)nn(C3CCOCC3)c21 [Compound I-390]
IC50: ≤ 200 nM
//
compound: CCN1C(=O)[C@@H](NC(=O)c2cccc(C(F)(F)F)c2)[C@@H](c2ccc(F)cc2)c2c(CNC/C=C/C(=O)N(C)C)nn(-c3ccccc3)c21 [Compound I-490]
IC50: ≤ 200 nM
//
compound: CCN1C(=O)[C@@H](NC(=O)c2cccc(C(F)(F)F)c2)[C@@H](c2ccc(F)cc2)c2c(C(=O)N(CC#N)C3CC3)nn(C3CC3)c21 [Compound I-355]
IC50: ≤ 200 nM
//
compound: CCN1C(=O)[C@@H](NC(=O)c2csc3c2CCC(C)C3)[C@@H](C2CC2)c2c(C(=O)N3[C@H](C#N)C[C@H]4C[C@H]43)nn(C3CCOCC3)c21 (stereo partly drawn) [Compound I-656]
IC50: ≤ 200 nM
//
compound: CCOc1ccc(C)c(C(=O)N[C@@H]2C(=O)N(CC)c3c(c(C(=O)N4[C@H](C#N)C[C@H]5C[C@H]54)nn3C3CCOCC3)[C@@H]2C2CC2)c1 [Compound I-620]
IC50: ≤ 200 nM
//
compound: C=CS(=O)(=O)N(C)Cc1nn(-c2ccccc2)c2c1[C@H](c1ccc(F)cc1)[C@H](NC(=O)c1cccc(C(F)(F)F)c1)C(=O)N2CC (racemic) [Compound I-1]
IC50: ≤ 200 nM
//
compound: CCN1C(=O)[C@@H](NC(=O)c2cccc(C(F)(F)F)c2)[C@@H](C2CC2)c2c(C(=O)N3CC(=O)C[C@H]3C#N)nn(C3CCOCC3)c21 [Compound I-626]
IC50: ≤ 200 nM
